test system: SF-539 (CNS); experiment: NCI-60 cytotoxicity assay; format: cell-based; details: Homo sapiens; SF-539 CNS; 48 h, sulforhodamine B; read-out: Comparative Cytotoxicity GI50, CNS SF-539
observed-property: log10(GI50) (log10 of the value in nM)
Values are log10 of GI50 in nM.

{"columns": ["structure-as-smiles", "log10(GI50)"],
 "data": [
  ["COc1cc2c3c(n(CCCNC4CCCC4)c(=O)c2cc1OC)-c1cc2c(cc1C3=O)OCO2", 3.18]
]}

q: Field request: log10(GI50) | item: `CCNCCCn1c2c(c3cc(OC)c(OC)cc3c1=O)C(=O)c1cc(OC)cnc1-2`
a: 2.90

q: Field request: log10(GI50) | item: `COc1cc2c3c(n(CCCN4CCCCC4)c(=O)c2cc1OC)-c1cc2c(cc1C3=O)OCO2`
a: 3.16

q: Field request: log10(GI50) | item: `COc1cnc2c(c1)C(=O)c1c-2n(CCCNC(C)C)c(=O)c2cc(OC)c(OC)cc12`
a: 3.13

q: Field request: log10(GI50) | item: `COc1cnc2c(c1)C(=O)c1c-2n(CCCNCC2CC2)c(=O)c2cc(OC)c(OC)cc12`
a: 3.00

q: Field request: log10(GI50) | item: `COc1cc2c3c(n(CCCN4CCCC4)c(=O)c2cc1OC)-c1cc2c(cc1C3=O)OCO2`
a: 3.12

Measured values drawn from patent US20240287089A1 for this set.
